Target: T1, hPD-L1-His (human, UniProt Q9NZQ7 19-238)
T1 construct: Bought protein; also called hPD-L1-His (manufactured by Edison); not shown: His tag
T1 sequence (Q9NZQ7 19-238 limits assumed): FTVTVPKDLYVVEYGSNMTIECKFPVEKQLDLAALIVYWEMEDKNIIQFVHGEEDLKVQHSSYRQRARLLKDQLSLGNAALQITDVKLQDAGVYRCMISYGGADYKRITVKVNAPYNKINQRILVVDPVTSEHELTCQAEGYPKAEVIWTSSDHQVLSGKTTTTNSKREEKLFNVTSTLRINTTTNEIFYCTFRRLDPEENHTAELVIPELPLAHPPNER
Assay: SPR (Biacore T200), antibody on Protein A chip, hPD-L1-His injected, 1:1 fit
// koff lookup, one value per entry
Numbers only; they are read as s⁻¹.

Sample answers from the record:
- 7E4-H2K1-IgG1 (antibody, V domains shown) VH: QVQLVQSGAEVKKPGASVKVSCKASGFKFTDYAIHWVRQAPGKSLEWMGVISIYYGEASYNQKFKDRVTLTVDTSASTAYMELSSLRSEDTAVYYCAREDYYGSSSYFDYWGQGTLVTVSS VL: DNQLTQSPSFLSASVGDRVTITCSASSSVSSSYLHWYQQKPGAAPKPLIHRTSNLASGVPSRFSGSGSGTEFTLTISSLQPEDFATYYCQQWSGYPYTFGGGTKLEIK: 0.00344
- 33-10C9-mHvKv-IgG1-N297A (antibody, V domains shown) VH: QVQLQQPGAELVKPGSSVKLSCKASGYTFTTYYIYWVKQRPGQGLEWIGGINPYNGGTSFNEKFESKATLTVDISSSTAFMQLSSLTSEDSAVYYCTRDGNYVDYWGQGTTLTVSS VL: QIVLTQSPAIMSASPGEKVTITCSASSTVSYVHWLQQKPDTSPKLWIYSTSNLASGVPARFSGSGSGTSYSLTISRMEAEDAATYYCQQRSSSPPTFGSGTKLEIK: 0.000196
- 3F2-H4K3-IgG1 (antibody, V domains shown) VH: DVQLQESGPGLVKPSETLSLTCTVSGYSITSGYNWHWIRQFPGNKLEWMGYIHHSSITNYNPSLKSRITISRDTSKNQFFLQLSSVTAEDTATFYCAREGYDYDWFAYWGQGTLVTVSS VL: DIVLTQSPDTQSVTPKESVTLSCRASQSISNNLHWYQQKSHESPKLLIKYASQSISGIPSRFSGSGSGTDFTLTINSVEAEDFAMYFCQQSKSWPFTFGQGTRLEIK: 0.000696
- 3F2-H1K2-IgG1 (antibody, V domains shown) VH: QVQLQESGPGLVKPSETLSLTCTVSGYSITSGYNWHWIRQFPGNGLEWMGYIHHSSITNYNPSLKSRITISRDTSKNQFSLKLSSVTAADTATYYCAREGYDYDWFAYWGQGTLVTVSS VL: DIVLTQSPDFQSVTPKEKVTLSCRASQSISNNLHWYQQKPDESPKLLIKYASQSISGIPSRFSGSGSGTDFTLTINSVEAEDFAMYFCQQSKSWPFTFGQGTRLEIK: 0.000732
- 6A11-H3K3-IgG1 (antibody, V domains shown) VH: EVQLVESGGGLVQPGGSRRLSCAASGFTFSSFGMHWVRQAPGKGLEWVAYISSGSNTIYYADTVKGRFTISRDNAKNSLYLQMNSLRAEDTAVYYCTRNGYDGWYAMDYWGQGTTVTVSS VL: EIVLTQSPATLSASPGERATLSCSASSSVSYIHWFQQKPGQSPRRWIYDTSKLASGIPARFSGSGSGTDYTLTISSMEPEDFATYYCQQWSTNPFTFGQGTKLEIKR: 0.0013
- 6A11-H1K3-IgG1 (antibody, V domains shown) VH: EVQLVESGGGLVQPGGSLRLSCAASGFTFSSFGMHWVRQAPGKGLEWVSYISSGSNTIYYADTVKGRFTISRDNAKNSLYLQMNSLRAEDTAVYYCARNGYDGWYAMDYWGQGTTVTVSS VL: EIVLTQSPATLSASPGERATLSCSASSSVSYIHWFQQKPGQSPRRWIYDTSKLASGIPARFSGSGSGTDYTLTISSMEPEDFATYYCQQWSTNPFTFGQGTKLEIKR: 0.00113

Summary for this binder, 7E4-H2K2-IgG1 (antibody, V domains shown) VH: QVQLVQSGAEVKKPGASVKVSCKASGFKFTDYAIHWVRQAPGKSLEWMGVISIYYGEASYNQKFKDRVTLTVDTSASTAYMELSSLRSEDTAVYYCAREDYYGSSSYFDYWGQGTLVTVSS VL: DNVLTQSPSFLSASVGDRVTMTCSASSSVSSSYLHWYQQKPGASPKPLIHRTSNLASGVPSRFSGSGSGTEFTLTISSLQPEDFATYYCQQWSGYPYTFGGGTKLEIK : koff is 0.0027
